Origin of measurements: paper PMC4161153

# Subject of test: UniProtKB Q9NR97
# Sequence (Q9NR97 27-1041): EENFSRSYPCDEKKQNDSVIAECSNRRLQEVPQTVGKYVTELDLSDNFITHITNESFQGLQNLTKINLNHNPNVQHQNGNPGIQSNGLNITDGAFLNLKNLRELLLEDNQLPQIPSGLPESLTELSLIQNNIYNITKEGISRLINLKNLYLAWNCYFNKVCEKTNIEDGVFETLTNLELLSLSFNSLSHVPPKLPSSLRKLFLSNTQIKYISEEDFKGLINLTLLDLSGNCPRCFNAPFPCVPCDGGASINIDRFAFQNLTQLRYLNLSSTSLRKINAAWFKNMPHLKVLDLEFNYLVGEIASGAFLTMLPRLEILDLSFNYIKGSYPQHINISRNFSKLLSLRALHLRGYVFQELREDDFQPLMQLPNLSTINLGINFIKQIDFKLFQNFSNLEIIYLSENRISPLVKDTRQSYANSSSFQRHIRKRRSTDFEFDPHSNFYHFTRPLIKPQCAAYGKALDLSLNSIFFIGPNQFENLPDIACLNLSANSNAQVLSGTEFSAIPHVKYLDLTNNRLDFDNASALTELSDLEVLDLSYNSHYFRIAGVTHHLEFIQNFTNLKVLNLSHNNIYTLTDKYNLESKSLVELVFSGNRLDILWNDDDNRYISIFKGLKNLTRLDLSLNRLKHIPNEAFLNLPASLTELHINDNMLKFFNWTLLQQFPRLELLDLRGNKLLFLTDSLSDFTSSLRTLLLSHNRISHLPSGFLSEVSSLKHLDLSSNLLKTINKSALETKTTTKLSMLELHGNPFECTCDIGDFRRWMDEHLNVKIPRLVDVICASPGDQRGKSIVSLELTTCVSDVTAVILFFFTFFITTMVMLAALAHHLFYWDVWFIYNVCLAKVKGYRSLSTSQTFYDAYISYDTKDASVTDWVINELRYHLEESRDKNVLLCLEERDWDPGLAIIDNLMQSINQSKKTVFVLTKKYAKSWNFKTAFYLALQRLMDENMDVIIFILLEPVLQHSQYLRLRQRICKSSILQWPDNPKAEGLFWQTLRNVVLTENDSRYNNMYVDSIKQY
# Test protocol: Human TLR8-specific reporter gene assay
# Type: cell-based
# Run conditions: HEK293 cells, NF-κB induction
Metric: hTLR8 Agonistic Activity (EC50)

Prompt: # get_value(readout='hTLR8 Agonistic Activity (EC50)', item= CCCCCn1c(N)nc2c(-c3ccccc3)cccc21 [Compound 31l] )
Response: abrogated activity

Prompt: Next record, please: CCCCCn1c(N)nc2c(Cc3ccccc3)cccc21 [Compound 31m]
Response: abrogated activity

Prompt: Next record, please: CCCCCn1c(N)nc2c(OCc3ccccc3)cccc21
Response: abrogated activity
